# assayed-target: NS3 (Hepatitis C virus, UniProt A3EZJ3, K136M)
# experiment-notes: Binding affinity NS3 protease K136M
# Design: species or system Hepacivirus hominis
recorded-endpoint: pKi
# pKi: negative log10 of molar concentration; output just the value

Query string: I am curious: what pKi value has been reported for CC(C)COC(=O)NC(C(=O)N[C@@H](CC(C)C)C(=O)NC(CC(F)F)C(=O)NCCc1ccc(C(=O)O)cc1Cl)C(C)C (stereo partly specified) ?
Result string: 5.40

###

So I've got a bunch of molecules here, and I need their pIC50 values.
# assayed-target: Hepatitis C virus serine protease, NS3/NS4A (Hepatitis C virus, UniProt A3EZI9+D2K2A8)
# experiment-notes: Inhibitory activity against Hepatitis C NS3/NS4A protease
Non-standard residues stand in square brackets, D forms with d. Residues, ends and D or L forms follow the SMILES beside them. *: point of attachment. Dip = N[C@H](C(=O)O)C(c1ccccc1)c1ccccc1; Abu(4,4-F2) = N[C@@H](CC(F)F)C(=O)O; Cha = N[C@@H](CC1CCCCC1)C(=O)O; NHBn = c1ccc(CN*)cc1; X2 = Clc1ccccc1CCN*
# pIC50: negative log10 of molar concentration; output just the value

Query string: I am curious: what pIC50 value has been reported for CC(C)COC(=O)NC(CCC(=O)O)C(=O)N[C@@H](CC(C)C)C(=O)NC(CS)C(=O)NCCc1cccc(C(=O)O)c1 (stereo not given in full) ?
Result string: 5.04

Query string: I am curious: what pIC50 value has been reported for CC(=O)N[C@@H](CC(=O)O)C(=O)N[C@@H](CCC(=O)O)C(=O)N[C@H](C(=O)N[C@@H](CCC(=O)O)C(=O)N[C@@H](CC1CCCCC1)C(=O)N[C@@H](CS)C(=O)NCc1ccccc1)C(c1ccccc1)c1ccccc1 (Ac-DE[Dip]E[Cha]C-NHBn) ?
Result string: 6.60

Query string: I am curious: what pIC50 value has been reported for CC(=O)N[C@@H](CC(=O)O)C(=O)N[C@@H](CCC(=O)O)C(=O)N[C@H](C(=O)N[C@@H](CCC(=O)O)C(=O)N[C@@H](CC1CCCCC1)C(=O)N[C@@H](CC(F)F)C(=O)O)C(c1ccccc1)c1ccccc1 (Ac-DE[Dip]E[Cha][Abu(4,4-F2)]-OH) ?
Result string: 7.40

Query string: I am curious: what pIC50 value has been reported for CC(=O)N[C@@H](CC(=O)O)C(=O)N[C@@H](CCC(=O)O)C(=O)N[C@H](C(=O)N[C@@H](CCC(=O)O)C(=O)N[C@@H](CC1CCCCC1)C(=O)N[C@@H](CS)C(=O)NCCc1ccccc1Cl)C(c1ccccc1)c1ccccc1 (Ac-DE[Dip]E[Cha]C-X2) ?
Result string: 8.70

Query string: I am curious: what pIC50 value has been reported for COC(=O)c1ccc(CCNC(=O)C(CS)NC(=O)[C@H](CC(C)C)NC(=O)C(CCC(=O)O)NC(=O)OCC(C)C)cc1 (stereo not given in full) ?
Result string: 4.77

###

# assayed-target: NS3 (Hepatitis C virus, UniProt A3EZJ3)
# experiment-notes: Binding affinity for wild type NS3 protease
# Parameters: species or system Hepacivirus hominis
recorded-endpoint: Ki (nM)
Write the value in nM as a bare number.

Query string: Give recorded Ki with NS3 (Hepatitis C virus, UniProt A3EZJ3) for the following compound: CC(C)COC(=O)NC(C(=O)N[C@@H](CC(C)C)C(=O)NC(CC(F)F)C(=O)NCCc1ccc(C(=O)O)cc1Cl)C(C)C (stereo partly specified)
Result string: 2100
